IC50 reference
Tested on: HCT-116
Assay name: Antiproliferative activity against human HCT116 cells after 72 hrs by MTT assay
Format: functional, cell-based
Reported conditions: HCT-116, 72 h
Answer in nM, number only, no unit symbol.

For orientation, consider the following solved cases.
{"Molecule": "CC(C)C[C@H](NC(=O)[C@@H](NC(=O)N1C/C(=C\\c2ccc(F)cc2)C(=O)/C(=C/c2ccc(F)cc2)C1)C(C)C)B1OC(C)(C)C(C)(C)O1", "IC50 [nM]": 534}
{"Molecule": "CC(C)C[C@H](NC(=O)[C@H](CC(C)C)NC(=O)N1C/C(=C\\c2ccc(F)cc2)C(=O)/C(=C/c2ccc(F)cc2)C1)B1OC(C)(C)C(C)(C)O1", "IC50 [nM]": 639}
{"Molecule": "CC1(C)OB([C@@H](NC(=O)N2C/C(=C\\c3ccc(F)cc3)C(=O)/C(=C/c3ccc(F)cc3)C2)C2CCCCC2)OC1(C)C", "IC50 [nM]": 903}
{"Molecule": "COc1cc(/C=C/C(=O)CC(=O)/C=C/c2ccc(O)c(OC)c2)ccc1O [CURCUMIN]", "IC50 [nM]": 10900}
{"Molecule": "CC(C)C[C@H](NC(=O)N1CCN(C(=O)N2C/C(=C\\c3ccc(F)cc3)C(=O)/C(=C/c3ccc(F)cc3)C2)CC1)B1OC(C)(C)C(C)(C)O1", "IC50 [nM]": 1630}
{"Molecule": "CCC[C@H](NC(=O)N1C/C(=C\\c2ccc(F)cc2)C(=O)/C(=C/c2ccc(F)cc2)C1)B1OC(C)(C)C(C)(C)O1", "IC50 [nM]": 785}

Next molecule, IC50 to be filled in.
Bench note, HCT-116: CC(C)(C)[C@H](NC(=O)N1C/C(=C\c2ccc(F)cc2)C(=O)/C(=C/c2ccc(F)cc2)C1)B1OC(C)(C)C(C)(C)O1 , IC50 reads 828

====

System: Proteasome Macropain subunit MB1 (Homo sapiens)
Sequence (P28074 whole entry): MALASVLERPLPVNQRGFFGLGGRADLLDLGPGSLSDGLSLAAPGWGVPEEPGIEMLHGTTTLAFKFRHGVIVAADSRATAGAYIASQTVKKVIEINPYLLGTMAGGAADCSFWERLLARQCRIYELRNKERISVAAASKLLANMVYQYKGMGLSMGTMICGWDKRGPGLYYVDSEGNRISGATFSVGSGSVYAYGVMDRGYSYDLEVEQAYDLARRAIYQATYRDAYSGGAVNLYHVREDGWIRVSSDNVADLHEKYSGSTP
Assay name: Inhibition of chymotrypsin-like activity of 20S proteasome in human K562 cells using Suc-LLVYaminoluciferin as substrate after 2 hrs by luminescence assay
Format: cell-based
Measurement name: pIC50
Please treat pIC50 as minus the base-10 logarithm of the molar concentration.

So, CC(C)C[C@H](NC(=O)[C@H](Cc1ccccc1)NC(=O)N1C/C(=C\c2ccc(F)cc2)C(=O)/C(=C/c2ccc(F)cc2)C1)B(O)O ? Its pIC50 was 6.08

====

System: Proteasome Macropain subunit MB1 (Homo sapiens, UniProt P28074)
Assay name: Inhibition of chymotrypsin-like activity of 20S proteasome in human PC3 cell extract using Suc-LLVYaminoluciferin as substrate after 2 hrs
Measurement name: pIC50
Please treat pIC50 as minus the base-10 logarithm of the molar concentration.

So, COc1cc(/C=C/C(=O)CC(=O)/C=C/c2ccc(OC(=O)[C@@H](N)C(C)C)c(OC)c2)ccc1OC(=O)[C@@H](N)C(C)C ? Its pIC50 was 5.00
